Target: Biotinylated Human TNF-α Protein (active trimer) (Homo sapiens, UniProt P01375)
Construct: purchased ACROBiosystems TNA-H82E3
Sequence (P01375 77-233 limits assumed): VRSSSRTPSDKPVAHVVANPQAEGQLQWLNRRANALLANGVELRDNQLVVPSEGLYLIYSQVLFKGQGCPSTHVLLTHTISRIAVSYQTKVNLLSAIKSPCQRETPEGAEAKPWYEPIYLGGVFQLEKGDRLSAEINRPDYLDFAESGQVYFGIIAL
Experiment: Octet (BLI) binding to TNF-α
Details: 1:1 binding model, N.B. = No Binding
observable: Octet Kd TNF-α

compound	test-target	observable	result
CCC(=O)NC1COC(COCCOCCOCCOCCn2cc(COCC(COCc3cn(CCOCCOCCOCCOCC4OCC(NC(=O)CC)C(O)C4O)nn3)(COCc3cn(CCOCCOCCOCCOCC4OCC(NC(=O)CC)C(O)C4O)nn3)NC(=O)CNC(=O)CCOCCOCCC(=O)N3CCN(Cc4ccc(-c5c[nH]c6ccncc56)c(OCCc5ccc(-c6cccc7ccncc67)cc5)c4)CC3)nn2)C(O)C1O (stereo not drawn) [Compound 103]	Biotinylated Human TNF-α Protein (active trimer) (Homo sapiens, UniProt P01375)	Octet Kd TNF-α	N.B.
CCC(=O)N[C@H]1CO[C@H](COCCOCCOCCOCCn2cc(COCCNC(=O)CNC(=O)CCC(=O)N3CCN(Cc4ccc(-c5c[nH]c6ccncc56)c(OCCc5ccc(-c6cccc7ccncc67)cc5)c4)CC3)nn2)[C@H](O)[C@@H]1O [Compound 106]	Biotinylated Human TNF-α Protein (active trimer) (Homo sapiens, UniProt P01375)	Octet Kd TNF-α	N.B.
CCC(=O)NC1COC(COCCOCCOCCOCCn2cc(COCCNC(=O)CNC(=O)CCOCCOCCOCCOCCOCCOCCC(=O)N3CCN(Cc4ccc(-c5c[nH]c6ccncc56)c(OCCc5ccc(-c6cccc7ccncc67)cc5)c4)CC3)nn2)C(O)C1O (stereo not drawn) [Compound 105]	Biotinylated Human TNF-α Protein (active trimer) (Homo sapiens, UniProt P01375)	Octet Kd TNF-α	N.B.

Cited source: patent US20260256921A1
